# T/C per entry
# Test system: BDF1 mice, P388 leukemia ip, median survival T/C
# protocol_notes: NCI In Vivo Anticancer Drug Screen. Data for tumor model P388 Leukemia (intraperitoneal) in B6D2F1 (BDF1) mice
# condition_context: endpoint: median survival time; dose: 100.0 mg/kg/injection; schedule: Q01DX009 (ip); vehicle: saline; higher = longer survival
Toxic doses and inconclusive results are not listed.

> print(dat)
                                   compound  reported.metric               val
1                    O=C(CN1CCOCC1)N1CCOCC1              T/C   90 % of control
2  Nc1ccn(C2OC(CO)C(O)C2O)c(=O)n1 (stereo not given)              T/C  100 % of control
3                    O=S(=O)(O)c1ccc(Br)cc1              T/C   92 % of control
4                       CCOC(=O)CCN1CCCCCC1              T/C   95 % of control
5        c1ccc(-c2c[n+]3cc4ccccc4cc3cn2)cc1              T/C   95 % of control

(Q) // returns reported T/C for input C#CCOC1CCCCO1 (stereo not given)
(A) 100 % of control

(Q) Please do the same for NC(=O)CC(N)c1nn[nH]n1 (stereo not given) as well.
(A) 95 % of control

(Q) Also need NC(=O)C(O)C(Br)(Br)Br (stereo not given) , thanks.
(A) 116 % of control

(Q) Now the same for C=CCN1C(=O)CNC1=O
(A) 100 % of control

(Q) Please give the result for CC(=O)Nc1ccc(C)c([N+](=O)[O-])c1 too.
(A) 97 % of control

(Q) Again, but for NN1N=Nc2cccc3cccc1c23
(A) 110 % of control

###

# Tested on: BDF1 mice, P388 leukemia ip, median survival T/C
# protocol_notes: NCI In Vivo Anticancer Drug Screen. Data for tumor model P388 Leukemia (intraperitoneal) in B6D2F1 (BDF1) mice
# condition_context: endpoint: median survival time; dose: 12.5 mg/kg/injection; schedule: Q04DX003 (ip); vehicle: water
# Method: The antitumor activity of compounds was measured in mice bearing transplantable tumors. Survival or tumor size were measured and the results are expressed as the measurement made in the treated group (T) divided by the measurement made in the vehicle treated control group (C). The tumor model used in this assay is P388 Leukemia (intraperitoneal) in B6D2F1 (BDF1) mice
Inconclusive results and toxic doses are left out. How the source made its calls: active means survival T/C of 150% or more; inactive means T/C below 125% in these data.
Please answer using one outcome listed in active, inactive

> print(dat)
                                   compound  assigned.category
1  O=C1/C(=C\c2ccccc2)C(Br)c2ccccc21 (stereo unspecified)           inactive
2  COc1cccc(C(O)c2ccncc2C)c1OC (stereo unspecified)           inactive
3  C[n+]1ccc(Nc2ccc(NC(=O)c3ccc(N)cc3)cc2)cc1           inactive
4                  CN(C)Cc1ccc(C(C)(C)C)cc1           inactive
5  CC(=O)NC(Cc1ccc(N(CCCl)CCCl)cc1)C(=O)O (stereo unspecified)             active

(Q) What was the test verdict on C[n+]1cc2ccccc2c2ccccc21 ?
(A) inactive
